- tested-on: Human immunodeficiency virus type 1 reverse transcriptase (Human immunodeficiency virus 1, UniProt Q72547)
pIC50: −log10 of the molar value.
Decide using pIC50: a value greater than or equal to 7 is True, a smaller one is False.

These solved cases illustrate the format of a correct answer.
Hi, just wondering whether CCOCC1C(=O)NC(=O)C(CC)=C1Sc1cc(C)cc(C)c1 (centres undefined) shows pIC50 of 7 or higher.
False

Hi, just wondering whether COc1cccc(SC2=C(C)C(=O)NC(=O)C2COCCO)c1 (centres undefined) shows pIC50 of 7 or higher.
True

Exam item: decide whether the reported pIC50 for CCC1=C(Sc2ccccc2)C(COC2CCCCC2)C(=S)NC1=O (centres undefined) is at least 7.
False

Decide: is the reported value of pIC50 for CCOCC1C(=S)NC(=O)C(CC)=C1Sc1cc(C)cc(C)c1 (centres undefined) equal to or greater than 7?
False

For this compound, is measured pIC50 7 or higher? CCC1=C(Sc2ccccc2)C(COCc2ccc(Cl)cc2)C(=S)NC1=O (centres undefined)
False

Kindly determine if pIC50 recorded for CC1=C(Sc2cccc(Br)c2)C(COCCO)C(=O)NC1=O (centres undefined) is above or exactly 7.
True

Hi, just wondering whether CC1=C(Sc2cccc([N+](=O)[O-])c2)C(COCCO)C(=O)NC1=O (centres undefined) shows pIC50 of 7 or higher.
True

Is pIC50 at least 7? Consider Cc1cc(C)cc(SC2=C(C(C)C)C(=O)NC(=O)C2COCCO)c1 (centres undefined)
True

Hello, I need to know if CCOCC1C(=O)NC(=O)C(CC)=C1Sc1cc(Cl)cc(Cl)c1 (centres undefined) has measured pIC50 not below 7. Thanks!
False

# check: pIC50 of CC1=C(Sc2cccc(I)c2)C(COCCO)C(=O)NC1=O (centres undefined) is greater than or equal to 7
True

Further cases:
Confirm if pIC50 reported for the compound CC1=C(Sc2cccc(Cl)c2)C(COCCO)C(=O)NC1=O (centres undefined) is 7 or above.
True

Please indicate if the recorded pIC50 for CC1=C(Sc2cccc(C(F)(F)F)c2)C(COCCO)C(=O)NC1=O (centres undefined) meets or exceeds 7.
True

Can CC(C)C1=C(Sc2ccccc2)C(COCCO)C(=O)NC1=O (centres undefined) be said to have pIC50 at or above 7?
True

Entry CC1=C(Sc2cccc(O)c2)C(COCCO)C(=O)NC1=O (centres undefined) : is its pIC50 no less than 7?
True

Is reported pIC50 greater than or equal to 7 here: CCC1=C(Sc2ccccc2)C(COCCc2ccccc2)C(=S)NC1=O (centres undefined)
False

Quick check: does CC1=C(Sc2cc(Cl)cc(Cl)c2)C(COCCO)C(=O)NC1=O (centres undefined) have pIC50 greater than or equal to 7?
True

Tell me whether pIC50 is at least 7 here: CCC1=C(Sc2ccccc2)C(COCc2ccc(C)cc2)C(=S)NC1=O (centres undefined)
False

Assess whether reported pIC50 for CCC1=C(Sc2ccccc2)C(COCC2CCCCC2)C(=S)NC1=O (centres undefined) sits at 7 or higher.
False

Form field: pIC50 at least 7? Entry: CC1=C(Sc2cc(C)cc(C)c2)C(COCCO)C(=O)NC1=O (centres undefined)
True

Check this compound for pIC50 at or above 7: CC1=C(Sc2cccc(F)c2)C(COCCO)C(=O)NC1=O (centres undefined)
True
